Just for reference, PubChem BioAssay (NCI) is where these values come from.

Test system: IGROV1 ovarian
Assay: NCI tumour cell line growth inhibition, 48 h
Catalogue of compounds with associated TGI
metric: TGI

1. O=C(c1nn(-c2ccc(Cl)cc2)cc1O)n1nc(C(F)(F)F)cc1-c1ccccc1	> 100 µM
2. COc1ccc(Cn2c3ccc([N+](=O)[O-])cc3c(=O)n2Cc2ccccn2)cc1	> 100 µM
3. OC(C1CCCCCCCCCC1)C(O)C1CCCCCCCCCC1 (stereo not given)	> 100 µM
4. CCCCCCCCNC(C)C(O)c1ccc(SC(C)C)cc1 (stereo not given)	3.38 µM
5. CCCCCCCCCCC[C@@H](C[C@H]1OC(=O)[C@H]1CCCCCC)OC(=O)[C@@H](CC(C)C)NC=O	55.7 µM
6. CC(C)=CCC[C@@H](C)C1=CC(=O)C(C)=C(O)C1=O	23.2 µM
7. O=C(c1ccccc1)c1c(C(F)(F)F)n([O-])c2cc(F)c(F)cc2[n+]1=O	6.79 µM
8. COc1ccc(OC(C)C(=O)O)c2c1CCCC2=O (stereo not given)	> 100 µM
9. O=NN1C(c2ccccc2)CCCC1c1ccccc1 (stereo not given)	> 100 µM
10. CC(O)C(NC(=O)c1ccccc1)C(=O)N(Cc1ccccc1)Cc1ccccc1 (stereo not given)	> 100 µM
11. COc1ccc2c(c1)[nH]c(=O)c1c3cc(OC)c(OC)cc3cn21	0.233 µM
12. CCCCCCCCCCCCCCCC(=O)OCC1OC(OC)C(NC(=O)N(CCCl)N=O)C(O)C1O (stereo not given)	54 µM
13. CC[C@H](C)[C@H](NC(=O)NC(C)(C)C)C(=O)N(C)[C@H](C[C@@H](OC(C)=O)c1nc(C(=O)N[C@@H](Cc2ccccc2)C[C@H](C)C(=O)OC)cs1)C(C)C	> 25 µM
14. COc1ccc(/C=C\c2cc(OC)c(OC)c(OC)c2)cc1OCC(=O)Nc1nc2ccccc2s1	> 81.4 µM
15. Fc1cccc(Cl)c1Cn1c(-c2c(F)cccc2Cl)nc2ccccc21	> 100 µM
16. Fc1ccc([C@@H]2CCNC[C@H]2COc2ccc3c(c2)OCO3)cc1	20.3 µM
17. O=C1/C(=C/c2ccc(Cl)c(Cl)c2)CNC/C1=C\c1ccc(Cl)c(Cl)c1	18.8 µM
18. COc1ccc(-c2nnc(SCC(=O)Nc3ccc(C(=O)/C=C/c4cc(OC)c(OC)c(OC)c4)cc3)n2-c2ccccc2)cc1OC	> 10 µM
19. CC1=CC(=O)/C(=C/n2c(=S)[nH]c3cc(C)ccc32)C(=O)O1	> 100 µM
20. CNC(=O)c1cc(Oc2ccc3nc(N[C@@H]4CCCC[C@H]4O)sc3c2)ccn1	> 100 µM
